Just for reference, patent EP0028279A1 is where these values come from.

Experiment: Acute toxicity (LD50), oral, mouse
Details: in vivo, read-out: DL 50 (the source's name)
outcome-measure: LD50

Req: Given CCOc1c(N)c2c(c(OCC)c1OCC)C(C1c3c(cc(OC)c(OC)c3OC)CCN1C)OC2=O (stereo not shown) [458 L] , respond with its LD50.
Resp: ~6000 mg/kg
